- Test system: EKVX
- METHOD DESCRIPTION: NCI tumour cell line growth inhibition, 48 h
Active and inactive are the calls of the source. No stated cut-off is given here; in the data, active = GI50 up to about 1.1 µM and inactive = higher. Where a SMILES comes first, the peptide text is derived from it. The star is where a group is joined. Boc = CC(C)(C)OC(=O)*; Bn = c1ccc(C*)cc1
Measured GI50 accompanies every entry in the list below.

CC(=O)c1cnc2oc3ccc(O)cc3c2c1-c1ccccc1
23.9 µM (inactive)
COC(=O)C1=C(C(=O)OC)C2CCC1CC2=O (stereo not given)
> 100 µM (inactive)
CC(C)(C)OC(=O)Cn1ncn(NC(=O)Cc2ccccc2)c1=O
> 10 µM (inactive)
CSC(=S)OC1CC(n2cnc3c(NC(=O)c4ccccc4)ncnc32)OC1CO[Si](C)(C)C(C)(C)C (stereo not given)
25.1 µM (inactive)
COC(=O)C(CC(C)C)NC(=O)C(C)NC(=O)C(Cc1ccc(OCc2ccccc2)cc1)NC(=O)C(COCc1ccccc1)NC(=O)OC(C)(C)C (stereo not given) (Boc-S(Bn)Y(Bn)AL-OMe; configuration not given here)
> 100 µM (inactive)

Input: So what's the measured GI50 for this one? CC(=O)C1(C)CC(C#N)(C#N)C(C#N)=C1N (stereo not given)
Output: 26.5 µM (inactive)

Input: Try this compound next: `C=C1c2nc3ccccc3n2C=C(c2ccc(Cl)cc2)N1c1ccc(OCCN2CCCCC2)cc1`
Output: > 45 µM (inactive)

Input: Try this compound next: c1ccc(C2OC3(CCC[C@H]4C[C@H]43)O[C@H]2c2ccccc2)cc1 (stereo not given in full)
Output: 32.8 µM (inactive)

Input: Try this compound next: `COc1c(O)cc2c(c1O)C(=O)/C(=C/c1ccc(O)cc1)CO2`
Output: 28.8 µM (inactive)

Input: Try this compound next: `COC(=O)[C@]1(C)CCC[C@]2(C)[C@@H](CCC(=O)C(C)C)[C@]3(C=O)O[C@@H]3C[C@H]21`
Output: 44.8 µM (inactive)

Input: Try this compound next: C=CCCCC1SC2=C(CC)CCCN2C1=O (stereo not given)
Output: 78.7 µM (inactive)

Input: Try this compound next: `CCN(CC)C(=S)SS(=O)(=O)c1cccc(N)c1`
Output: > 100 µM (inactive)

Input: Try this compound next: `COC(=O)c1nc(N)nc(C(=O)OC)c1C(=O)c1ccccc1`
Output: > 100 µM (inactive)
